Catalogue of Ki readings, one per entry.
experimental.system: Solute carrier family 22 member 2 (Rattus norvegicus)
Sequence (Q9R0W2 whole entry): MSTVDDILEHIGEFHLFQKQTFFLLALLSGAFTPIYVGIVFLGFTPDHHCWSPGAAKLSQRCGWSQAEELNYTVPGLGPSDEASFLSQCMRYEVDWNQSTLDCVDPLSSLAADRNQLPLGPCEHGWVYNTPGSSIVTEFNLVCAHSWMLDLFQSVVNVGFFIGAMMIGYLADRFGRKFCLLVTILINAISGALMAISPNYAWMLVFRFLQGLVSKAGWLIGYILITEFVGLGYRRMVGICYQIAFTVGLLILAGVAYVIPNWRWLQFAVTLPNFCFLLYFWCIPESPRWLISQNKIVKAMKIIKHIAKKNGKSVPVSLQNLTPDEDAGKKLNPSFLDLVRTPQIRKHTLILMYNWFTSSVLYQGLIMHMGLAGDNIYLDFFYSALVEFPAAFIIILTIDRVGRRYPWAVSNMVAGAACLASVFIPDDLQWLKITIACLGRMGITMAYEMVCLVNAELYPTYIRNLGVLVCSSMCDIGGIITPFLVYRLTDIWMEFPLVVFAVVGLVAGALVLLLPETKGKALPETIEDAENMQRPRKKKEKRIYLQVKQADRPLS
measurement.protocol: TP_TRANSPORTER: inhibition of Adrenaline uptake in OCT2-expressing HEK293 cells
Format: functional, cell-based
measured.quantity: Ki

INSERT INTO measurements (compound, observed) VALUES
  ('CC(C)N1/C(=C\c2cc[n+](C(C)C)c3ccccc23)C=Cc2ccccc21 [DISPROCYNIUM24]', '12 nM'),
  ('C[C@]12C[C@H](O)[C@H]3[C@@H](CCC4=CC(=O)CC[C@@]43C)[C@@H]1CC[C@@H]2C(=O)CO [CORTICOSTERONE]', '420 nM');

---

experimental.system: UniProtKB Q9R0W2
measurement.protocol: TP_TRANSPORTER: inhibition of Dopamine uptake in OCT2-expressing HEK293 cells
Type: functional, cell-based
measured.quantity: Ki (nM)

INSERT INTO assay_data (molecule, experimental_system, observed) VALUES
  ('C[C@]12C[C@H](O)[C@H]3[C@@H](CCC4=CC(=O)CC[C@@]43C)[C@@H]1CC[C@@H]2C(=O)CO [CORTICOSTERONE]', 'UniProtKB Q9R0W2', 390),
  ('CC(C)N1/C(=C\c2cc[n+](C(C)C)c3ccccc23)C=Cc2ccccc21 [DISPROCYNIUM24]', 'UniProtKB Q9R0W2', 5.1);

---

experimental.system: Solute carrier family 22 member 2 (Rattus norvegicus, UniProt Q9R0W2)
measurement.protocol: TP_TRANSPORTER: inhibition of Serotonin uptake in OCT2-expressing HEK293 cells
Assay type: functional, cell-based
List of Ki values.
measured.quantity: Ki (nM)

INSERT INTO measurements (compound, experimental_system, unit_string, observed) VALUES
  ('C[C@]12C[C@H](O)[C@H]3[C@@H](CCC4=CC(=O)CC[C@@]43C)[C@@H]1CC[C@@H]2C(=O)CO [CORTICOSTERONE]', 'Solute carrier family 22 member 2 (Rattus norvegicus, UniProt Q9R0W2)', 'nM', 605),
  ('CC(C)N1/C(=C\c2cc[n+](C(C)C)c3ccccc23)C=Cc2ccccc21 [DISPROCYNIUM24]', 'Solute carrier family 22 member 2 (Rattus norvegicus, UniProt Q9R0W2)', 'nM', 13);
